Reference source for all entries: patent US20240261417A1

# ASSAY TARGET: UniProt:Q07889
# Sequence (Q07889 whole entry): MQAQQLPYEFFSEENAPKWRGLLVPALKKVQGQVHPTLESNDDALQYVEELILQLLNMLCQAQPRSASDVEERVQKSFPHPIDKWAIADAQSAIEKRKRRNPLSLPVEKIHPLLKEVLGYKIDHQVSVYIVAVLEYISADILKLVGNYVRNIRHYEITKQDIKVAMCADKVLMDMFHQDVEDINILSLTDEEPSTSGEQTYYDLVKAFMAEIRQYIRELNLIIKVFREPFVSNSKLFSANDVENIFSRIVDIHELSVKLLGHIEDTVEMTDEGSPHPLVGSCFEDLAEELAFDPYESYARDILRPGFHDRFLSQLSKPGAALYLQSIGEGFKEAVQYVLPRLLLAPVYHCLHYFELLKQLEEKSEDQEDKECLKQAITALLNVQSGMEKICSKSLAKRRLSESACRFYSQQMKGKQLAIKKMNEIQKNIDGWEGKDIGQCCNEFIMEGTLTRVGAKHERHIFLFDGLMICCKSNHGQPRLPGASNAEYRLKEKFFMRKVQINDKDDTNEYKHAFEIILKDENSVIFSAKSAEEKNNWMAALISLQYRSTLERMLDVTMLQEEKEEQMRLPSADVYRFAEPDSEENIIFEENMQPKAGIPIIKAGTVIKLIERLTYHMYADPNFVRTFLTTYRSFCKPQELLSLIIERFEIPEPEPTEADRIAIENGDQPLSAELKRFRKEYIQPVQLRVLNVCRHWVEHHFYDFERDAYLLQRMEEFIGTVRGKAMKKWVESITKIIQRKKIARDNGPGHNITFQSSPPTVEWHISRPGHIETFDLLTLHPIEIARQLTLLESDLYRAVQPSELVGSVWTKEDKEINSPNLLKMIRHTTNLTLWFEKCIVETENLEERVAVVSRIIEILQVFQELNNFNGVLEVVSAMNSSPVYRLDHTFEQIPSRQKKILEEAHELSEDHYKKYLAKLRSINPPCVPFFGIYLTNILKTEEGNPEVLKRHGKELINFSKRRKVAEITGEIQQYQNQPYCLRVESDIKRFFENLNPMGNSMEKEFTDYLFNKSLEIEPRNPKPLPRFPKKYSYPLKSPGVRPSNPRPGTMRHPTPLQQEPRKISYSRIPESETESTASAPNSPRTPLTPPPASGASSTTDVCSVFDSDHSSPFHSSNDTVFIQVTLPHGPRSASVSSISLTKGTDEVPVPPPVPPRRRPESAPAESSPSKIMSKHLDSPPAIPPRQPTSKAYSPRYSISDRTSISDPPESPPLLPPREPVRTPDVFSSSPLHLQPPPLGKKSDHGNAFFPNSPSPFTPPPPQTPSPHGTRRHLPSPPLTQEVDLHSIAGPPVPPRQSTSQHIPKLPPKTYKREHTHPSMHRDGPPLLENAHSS
# ASSAY METHOD TEXT: SOS1 degradation assay (Western blot), DLD-1 cells
# Assay type: cell-based
# Set-up: host or cells: DLD-1 (human cancer cell lines)
# PARTICULARS: 24 h, read-out: DLD-1 (G13D) DC50
QUANTITY: DC50

In the examples that follow, each entry is paired with its recorded DC50.
COc1cc2nc(C)nc(N[C@H](C)c3cc(N)cc(C(F)(F)F)c3)c2cc1[C@H]1CC[C@H](C(=O)N2CCN(CCC3CCC4(CC3)CCN(C(=O)c3ccc(Cl)c(N5CCC(=O)NC5=O)c3)CC4)CC2)CC1    < 50 nM
COc1cc2nc(C)nc(N[C@H](C)c3cccc4c3CCS4(=O)=O)c2cc1[C@H]1CC[C@H](C(=O)N2CCN(CC3CCC4(CC3)CCN(C(=O)c3ccc(Cl)c(N5CCC(=O)NC5=O)c3)CC4)CC2)CC1    < 50 nM

Query: Suppose we examine the compound COc1cc2nc(C)nc(N[C@H](C)c3cc(N)cc(C(F)(F)F)c3)c2cc1[C@H]1CC[C@H](C(=O)N2CCC(CCOCC3CCN(C(=O)c4ccc(Cl)c(N5CCC(=O)NC5=O)c4)CC3)CC2)CC1 ; what DC50 value has been reported?
Response: 50 to 100 nM

---

# ASSAY TARGET: UniProtKB Q07889
# ASSAY METHOD TEXT: SOS1 degradation assay (Western blot), NCI-H358 cells
# Assay type: cell-based
# Parameters: The degradation of SOS1 by the compounds was investigated on KRAS G12C mutant human non-small cell lung cancer cells NCI-H358; host or cells: NCI-H358 (human cancer cell lines)
# PARTICULARS: SOS1 degradation, NCI-H358 cells, 24 h, Western blot; read-out: NCI-H358 (G12C) DC50
Each item that follows carries a reported DC50.

Query: Suppose we examine the molecule Cc1nc(N[C@H](C)c2cc(N)cc(C(F)(F)F)c2)c2cc(C3CCN(CC(=O)NCCC4CCC5(CC4)CCN(C(=O)c4ccc(Cl)c(N6CCC(=O)NC6=O)c4)CC5)CC3)ccc2n1 ; what DC50 value has been reported?
Response: 500 to 1000 nM

Query: Suppose we examine the molecule COc1cc2nc(C)nc(N[C@H](C)c3cc(N)cc(C(F)(F)F)c3)c2cc1O[C@H]1CC[C@H](C(=O)N2CCN(CC3CCC4(CC3)CCN(C(=O)c3ccc(Cl)c(N5CCC(=O)NC5=O)c3)CC4)CC2)CC1 ; what DC50 value has been reported?
Response: 1000 to 10000 nM

Query: Suppose we examine the molecule COc1ccc(C(=O)N2CCC(COCCC3CCN(C(=O)[C@H]4CC[C@H](c5cc6c(N[C@H](C)c7cc(N)cc(C(F)(F)F)c7)nc(C)nc6cn5)CC4)CC3)CC2)cc1N1CCC(=O)NC1=O ; what DC50 value has been reported?
Response: 100 to 500 nM

Query: Suppose we examine the molecule COc1cc2nc(C)nc(N[C@H](C)c3cc(N)cc(C(F)(F)F)c3)c2cc1OC1CCN(CC2CCC3(CC2)CCN(C(=O)c2ccc(Cl)c(N4CCC(=O)NC4=O)c2)CC3)CC1 ; what DC50 value has been reported?
Response: 1000 to 10000 nM

Query: Suppose we examine the molecule COc1cc2nc(C)nc(N[C@H](C)c3cc(N)cc(C(F)(F)F)c3)c2cc1[C@H]1CC[C@H](C(=O)N2CCN(CCCCC3CCN(C(=O)c4ccc(Cl)c(N5CCC(=O)NC5=O)c4)CC3)CC2)CC1 ; what DC50 value has been reported?
Response: < 50 nM

Query: Suppose we examine the molecule Cc1nc(N[C@H](C)c2cc(N)cc(C(F)(F)F)c2)c2cc([C@H]3CC[C@H](C(=O)N4CCN(CC5CCC6(CC5)CCN(C(=O)c5ccc(Cl)c(N7CCC(=O)NC7=O)c5)CC6)CC4)CC3)ncc2n1 ; what DC50 value has been reported?
Response: 100 to 500 nM

Query: Suppose we examine the molecule COc1cc2nc(C)nc(N[C@H](C)c3cc(-c4c(Cl)cccc4CN(C)C)cs3)c2cc1[C@H]1CC[C@H](C(=O)N2CCC(CCOCC3CCN(C(=O)c4ccc(C(F)(F)F)c(N5CCC(=O)NC5=O)c4)CC3)CC2)CC1 ; what DC50 value has been reported?
Response: < 50 nM

Query: Suppose we examine the molecule COc1cc2nc(C)nc(N[C@H](C)c3cc(N)cc(C(F)(F)F)c3)c2cc1C1=CCC(C(=O)N2CCC(CCOCC3CCN(C(=O)c4ccc(OC)c(N5CCC(=O)NC5=O)c4)CC3)CC2)CC1 (stereo partly shown) ; what DC50 value has been reported?
Response: < 50 nM

Query: Suppose we examine the molecule COc1cc2nc(C)nc(N[C@H](C)c3cc(N)cc(C(F)(F)F)c3)c2cc1[C@H]1CC[C@H](C(=O)N2CCC(CCOCC3CCN(C(=O)c4ccc(F)c(N5CCC(=O)NC5=O)c4)CC3)CC2)CC1 ; what DC50 value has been reported?
Response: < 50 nM

Query: Suppose we examine the molecule Cc1nc(N[C@H](C)c2cc(N)cc(C(F)(F)F)c2)c2cc([C@H]3CC[C@H](C(=O)N4CCN(CC5CCC6(CC5)CCN(C(=O)c5ccc(Cl)c(N7CCC(=O)NC7=O)c5)CC6)CC4)CC3)c(C)cc2n1 ; what DC50 value has been reported?
Response: < 50 nM
